Assign TGI to each entry below.
- System: 786-0 renal
- protocol-description: NCI tumour cell line growth inhibition, 48 h

Qu. Value lookup for TGI; key = CC[C@@]12CCC(=S)N(CCSc3ccccc3)[C@@H]1c1c(n(S(=O)(=O)c3ccc(OC)cc3)c3ccccc13)CC2
Ans. > 100 µM

Qu. Now this one: O=c1cccccc1[O-].O=c1cccccc1[O-].O=c1cccccc1[O-].[Sm+3]
Ans. > 100 µM

Qu. Now this one: COc1cccc(N=NN2CCCC2)c1
Ans. > 100 µM

Qu. Now this one: Clc1ccc2c(NCCCN3CCN(c4nc(N5CCOCC5)nc5ccccc45)CC3)ccnc2c1
Ans. 3.03 µM

Qu. Now this one: Clc1cc2ncn(C3CCCCO3)c2cc1Cl (stereo not given)
Ans. > 100 µM

Qu. Now this one: N#CCC1(n2cc(-c3ncnc4[nH]ccc34)cn2)CN(C2CCN(C(=O)c3ccnc(C(F)(F)F)c3F)CC2)C1
Ans. > 100 µM

Qu. Now this one: Cc1ccc2nc(C(=O)O)c(=O)[nH]c2c1
Ans. > 100 µM

Qu. Now this one: CC1=CCN(c2ccccn2)OC1c1ccccc1 (stereo not given)
Ans. > 100 µM

Qu. Now this one: CC1CC(C)C(C(O)CC2CC(=O)N(c3ccccc3)C(=O)C2)C(O)C1 (stereo not given)
Ans. > 100 µM

Qu. Now this one: CC(C)(CN1CCCCC1)C(=O)CC(SCCS(=O)(=O)O)c1ccc(Cl)cc1 (stereo not given)
Ans. 8.91 µM

====

- System: T-47D breast
- protocol-description: NCI tumour cell line growth inhibition, 48 h
Assign TGI to each entry below.

Qu. Value lookup for TGI; key = CC(=O)N[C@@H](Cc1ccc(O)cn1)C(=O)NC1CCCCC1
Ans. > 100 µM

Qu. Now this one: C[C@]12CCC3=NCCN3C1=CC[C@@H]1[C@@H]2CC[C@@]2(C)[C@H]1CC[C@]2(C)O
Ans. > 100 µM

Qu. Now this one: CCCCCCCCCCCCC1N=C(N)N2CCCC2=C1C(=O)OC (centres undefined)
Ans. 3.73 µM

Qu. Now this one: COc1cc(N(CCC#N)CCC#N)ccc1/C(N=Nc1ccc(C(=O)O)cc1)=N/NC(=O)c1cc(Br)ccc1O
Ans. > 150 µg/mL

Qu. Now this one: COc1ccc(/C=C/C(C)=N/OCC(=O)Nc2ccc(Cl)cc2)cc1
Ans. 24.8 µM

Qu. Now this one: CC1=C2[C@@H](CC1)[C@]1(C)O[C@@](C3CC3)(C[C@H]1OC(=O)CO)[C@H]2OC(=O)/C=C/c1ccccc1
Ans. 36.6 µM

Qu. Now this one: NC(N)=N/N=C/c1c(-c2ccncc2)nc2sc(Cl)cn12
Ans. 56.6 µM

Qu. Now this one: c1cc2c(cc1[C@@H]1OC[C@@H]3[C@H]1CO[C@H]3c1ccc3c(c1)OCO3)OCO2
Ans. > 100 µM

Qu. Now this one: CCOC(=O)c1cn(CC)c2ccc3c(c2c1=O)S(=O)(=O)C=C3
Ans. > 100 µM

====

- Tested on: 786-0 renal
- protocol-description: NCI tumour cell line growth inhibition, 48 h
Where a SMILES comes first, the peptide text is derived from it. The star is where a group is joined. Cbz = O=C(OCc1ccccc1)*; Boc = CC(C)(C)OC(=O)*; OSu = O=C1CCC(=O)N1O*; Bn = c1ccc(C*)cc1
endpoint: TGI (µM)
The answer is to be given in µM; state only the numeric part.

Qu. Notebook entry, 786-0 renal assay: TGI of O=C(N/N=C/c1ccc(F)cc1)c1ccc(C(F)(F)F)nc1Nc1cccc(C(F)(F)F)c1 = ?
Ans. 4.62

Qu. Now this one: O=C(/C(=C/c1ccc(O)cc1)c1ccccc1)c1ccccc1
Ans. 34.5

Qu. Now this one: CC1=C(CNO)C2=C(C)C3(CC3)[C@@](C)(O)C(=O)C2=C1
Ans. 6.88

Qu. Now this one: Cn1ccnc1C(=O)/C=C/c1ccc(C(=O)Nc2c(F)c(F)c(F)c(F)c2F)cc1
Ans. 3.62

Qu. Now this one: CC(C)(C)OC(=O)NC(Cc1ccc(OCc2ccccc2)cc1)C(=O)NC(CCCCNC(=O)OCc1ccccc1)C(=O)NC(CCCCNC(=O)OCc1ccccc1)C(=O)ON1C(=O)CCC1=O (configuration not stated) (Boc-Tyr(Bn)-Lys(Cbz)-Lys(Cbz)-OSu; configuration not given here)
Ans. 37.1
